This listing pairs molecules with measured inhibition.
experiment: loss of swimming-algae plug formation – whole organism, Chlamydomonas reinhardtii, WT vs cilia-less mutant, absorbance, 96-well, primary screen (AID 463189); conditions: Chlamydomonas reinhardtii gravitaxis, OD600 absorbance, 2 days; at 10 µM; active compounds read high;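 further: 0% = wild type cc124 cells in DMSO and 100% = ciliumless bld1 mutant cells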
The source made the active and inactive calls.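 How the source made its calls: active means inhibition at or above 50% relative to wild type and mutant plate controls; inactive means inhibition below 50%.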 Residues, ends and D or L forms follow the SMILES beside them.
observed.property: inhibition

> print(dat)
                                    molecule          data.value
 1  CC(C)C[C@H](NC(=O)[C@@H]1CCCN1C(=O)[C@@H](N)Cc1ccc(O)cc1)C(=O)NCC(N)=O (H-YPLG-NH2)   -9.78% (inactive)
 2  CC[C@@H](CO)NC(=O)[C@@H]1C=C2c3cccc4[nH]cc(c34)C[C@H]2N(C)C1  -0.368% (inactive)
 3  Cc1ccc(-n2c(O)c(C=NCCN3CCOCC3)c(=O)[nH]c2=O)cc1   -5.09% (inactive)
 4  CCOCCN1CCC(OC(C)=O)C(C)C1 (stereo not given)   -15.8% (inactive)
 5  CCNC(=O)[C@H]1O[C@@H](n2cnc3c(N)ncnc32)C(O)[C@H]1O (stereo not given in full)   -1.46% (inactive)
 6   NC(CP(=O)(O)O)C(=O)O (stereo not given)    5.89% (inactive)
 7  CCc1c(C(=O)OC)ncc2[nH]c3cc(OC)c(OC)cc3c12    1.73% (inactive)
 8  CCN(CC)c1ncnc2c1ncn2[C@@H]1O[C@H](COP(=O)(O)OP(=O)(O)C(Br)(Br)P(=O)(O)O)[C@@H](O)[C@H]1O   -12.6% (inactive)
 9  Oc1ccc2c3c1O[C@H]1c4oc5ccccc5c4C[C@@]4(O)C(C2)N(CC2CC2)CCC314 (stereo not given in full)    3.38% (inactive)
10  COCCOC(=O)c1c(N)n(Cc2ccco2)c2nc3ccccc3nc12      15% (inactive)

###

test: reduction of polyQ htt aggregates in cells – imaging, exon1htt(103Q)mCFP cells, high-content imaging, primary screen (AID 483); details: exon1htt(103Q)mCFP cell line, aggregate imaging, at 2 µM; active compounds read high;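 further: compound exposure lasted 3 days before fixation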
This listing pairs compounds with measured inhibition of aggregation.
observed.property: inhibition of aggregation (%)

> print(dat)
                                    compound          observed.property  data.value
 1  CN1CCN(C(=O)OC2c3nccnc3C(=O)N2c2ccc(Cl)cn2)CC1 (configuration not stated)  inhibition of aggregation          -7
 2  COc1ccc(CN2CCN(C(=O)Cc3ccccc3)CC2)c(OC)c1  inhibition of aggregation           8
 3  N=C(N)c1c(O)n(C2CCCCC2)c(=O)n(C2CCCCC2)c1=O  inhibition of aggregation       -10.9
 4       COc1ccccc1CN1CCN(C(=O)Cc2ccccc2)CC1  inhibition of aggregation         2.7
 5  CCN(CC)CCN=Cc1c(O)n(CCC2=CCCCC2)c(=O)[nH]c1=O  inhibition of aggregation        -1.5
 6           Cc1cc(C)c(C(=O)CN2CCOCC2)c(C)c1  inhibition of aggregation         7.9
 7                 C[N+]1(C)CCN(c2ccccc2)CC1  inhibition of aggregation         -27
 8  CCOc1ccc(-n2c(O)c(C=NCCN3CCNCC3)c(=O)[nH]c2=O)cc1  inhibition of aggregation       -17.4
 9     CNP1(NC)=NC(C(F)(F)F)=NC(C(F)(F)F)=N1  inhibition of aggregation         6.8
10       Cc1ccc(CC2C(=O)N(C)C(=O)N(C)C2=O)s1  inhibition of aggregation           2
11  O=C1OCCC1NC1=NCCC1 (configuration not stated)  inhibition of aggregation        -1.8
12                COc1ccc(C(=O)N2CCCC2=O)cc1  inhibition of aggregation        11.2
